Consider the following sequences and their measured cleaved RNA product abundance readings.
- Tested on: Bacillus subtilis
- Test Method Notes: cleaved RNA product abundance (RNA/gDNA barcode ratio) relative to median wild-type variant (ratio to wild type); higher = more accumulation of the downstream cleavage product
- Condition: experiment (reporter, strain, medium): exp 4a: truncated aprE reporter, strain BJT201 with 2% xylose (RNase J1 expressed); cleavage site: cggR-gapA (positions -7 to +36 mutated)
Output spec: single numeric token, no unit.

Use these answered entries as a reference point.
>  <Seq>
ACAGACGAAGGAGCCGCGAAGAACTTATTAAGGGATGAATAATCCCTCAATATAAATATCTCTCACTTATTTAAA

>  <cleaved RNA product abundance>
0.252

$$$$
>  <Seq>
ACAGACGAAGGAGCCGCAAAGAAGTATTTAAGGGATGAATAATCCCTCAATATAAATATCTCTCACTTATTTAAA

>  <cleaved RNA product abundance>
0.288

$$$$
>  <Seq>
ACAGACGAAGGAGCCGCAAAGAAGTTATTAAGTGATGAATAATCCCTCAATTTAAATATCTCTCACTTATTTAAA

>  <cleaved RNA product abundance>
0.0598

$$$$
>  <Seq>
ACAGACGAAGGAGCCGCAAAGAAGTTATTAAGGGATAAATTATCCCTCAATATAAATATCTCTCACTTATTTAAA

>  <cleaved RNA product abundance>
1.03

$$$$
>  <Seq>
ACAGACGAAGGAGCCGCAAAGAAGTTATTAAGGGATGATTAATCCCTCAATTTAAATATCTCTCACTTATTTAAA

>  <cleaved RNA product abundance>
0.0965

$$$$
>  <Seq>
ACAGACGAAGGAGCCGCAAAGAAGTTATTAAGGGCTGAACAATCCCTCAATATAAATATCTCTCACTTATTTAAA

>  <cleaved RNA product abundance>
0.156

$$$$
>  <Seq>
ACAGACGAAGGAGCCGCAAAGCAGTTATTAAGGAATGAATAATCCCTCAATATAAATATCTCTCACTTATTTAAA

>  <cleaved RNA product abundance>
0.0974

$$$$
>  <Seq>
ACAGACGAAGGAGCCGCAAAGAAGTTATTCAGGGATGAATAATCCCCCAAAATAAATATCTCTCACTTATTTAAA

>  <cleaved RNA product abundance>
0.165

$$$$
>  <Seq>
ACAGACGAAGGAGCCGCAAAGAAGTTATAAAGGGATGAATAATCCCTCTATATAAATATCTCTCACTTATTTAAA

>  <cleaved RNA product abundance>
0.941

$$$$
>  <Seq>
ACAGACGAAGGAGCCGCTAAGAAGTAATTAAGGGATGAATAATCCCTCAATATAAATATCTCTCACTTATTTAAA

>  <cleaved RNA product abundance>
0.309

$$$$

Query: Please give the measured cleaved RNA product abundance for this sequence: `ACAGACGAAGGAGCCGCACAGAAGTTATTAAGGGATGAATAATCCCTCAATAAAAATATCTCTCACTTATTTAAA`
Response: 0.116

Query: Field request: cleaved RNA product abundance | item: `ACAGACGAAGGAGCCGCAAAGAAATTATTAAAGGATTAATAATCCCTCAATATAAATATCTCTCACTTATTTAAA`
Response: 0.142

Query: Value lookup for cleaved RNA product abundance; key = `ACAGACGAAGGAGCCGCAAAGTCGTTATTAAGGGATGAATAATCCCTCAATATAAATATCTCTCACTTATTTAAA`
Response: 0.9

Query: Recorded cleaved RNA product abundance for `ACAGACGAAGGAGCCGCCAAGATGTTATTAAGGGATGAATAATCCCTCAATATAAATATCTCTCACTTATTTAAA` , please?
Response: 0.894

Query: Query (sequence): `ACAGACGAAGGAGCCGCAAAGAAATTCTTAAGGGATGAATAATCCCTCAATATAAATATCTCTCACTTATTTAAA` ; field requested: cleaved RNA product abundance
Response: 0.199

Query: // query cleaved RNA product abundance value for entry `ACAGACGAAGGAGCCGCAAAGAAGTTATGAAGGGATTAATAATCCCTCAATATAAATATCTCTCACTTATTTAAA`
Response: 0.476

Query: Entry under review: `ACAGACGAAGGAGCCGCAAAGAAGTTATTAAGGGATGAATAATCCCTCATCATAAATATCTCTCACTTATTTAAA` . Reported cleaved RNA product abundance?
Response: 0.115

Query: For the sequence `ACAGACGAAGGAGCCGCAAAGAAGTTATAAAGGGATGAATAATCCCTTAATATAAATATCTCTCACTTATTTAAA` , what cleaved RNA product abundance is on record?
Response: 0.593

Query: Can you share its cleaved RNA product abundance? I mean this sequence: `ACAGACGAAGGAGCCGCAAAGAAGTTATTAAGGTAGGAATAATCCCTCAATATAAATATCTCTCACTTATTTAAA`
Response: 0.159

Query: Can you share its cleaved RNA product abundance? I mean this sequence: `ACAGACGAAGGAGCCGCAAATAAGTTATTAAGGGATTAATAATCCCTCAATATAAATATCTCTCACTTATTTAAA`
Response: 0.881

Query: Please look up its cleaved RNA product abundance: `ACAGACGAAGGAGCCGCAAAGAAGTAATTAAAGGATTAATAATCCCTCAATATAAATATCTCTCACTTATTTAAA`
Response: 0.183

Query: // lookup cleaved RNA product abundance for `ACAGACGAAGGAGCCGCAAAGAAGTTATTAAGGGATGAATAATCCATCAATATAAAAATCTCTCACTTATTTAAA`
Response: 0.145

Query: What measured cleaved RNA product abundance goes with `ACAGACGAAGGAGCCGCAAAGAAGTTATTAAGGGATGAATAATCCTTCAATATAAGTATCTCTCACTTATTTAAA` ?
Response: 0.213

Query: Which cleaved RNA product abundance is listed for `ACAGACGAAGGAGCCGCAAGGAAGTTATTAAGGGATGAATAATCCCTCAATATAAATATCTCTCACTTATTTAAA` ?
Response: 0.863

---

cleaved RNA product abundance overview
- Tested on: Bacillus subtilis
- Test Method Notes: cleaved RNA product abundance (RNA/gDNA barcode ratio) relative to median wild-type variant (ratio to wild type); higher = more accumulation of the downstream cleavage product
- Condition: experiment (reporter, strain, medium): exp 4a: truncated aprE reporter, strain BJT201 with 2% xylose (RNase J1 expressed); cleavage site: cggR-gapA (positions -7 to +36 mutated)
Keep the answer to the number alone.

>  <Seq>
ACAGACGAAGGAGCCGCAAAGAAGTTCTTAAGGGATGAATAATCCCTAAATATAAATATCTCTCACTTATTTAAA

>  <Test Value>
0.193

$$$$
>  <Seq>
ACAGACGAAGGAGCCGCAAAGAAGTTATTAAGGAATGAATAATCCCTCAATATAAATTTCTCTCACTTATTTAAA

>  <Test Value>
0.142

$$$$
>  <Seq>
ACAGACGAAGGAGCCGCAAAGAAATTATTAAGGGATGAATAATCCCTCGATATAAATATCTCTCACTTATTTAAA

>  <Test Value>
0.395

$$$$

Query: GET /values?readout=cleaved RNA product abundance&item= `ACAGACGAAGGAGCCGCAAAGAAGTTGTTAAGAGATGAATAATCCCTCAATATAAATATCTCTCACTTATTTAAA`
Response: 0.103

---

- System: Bacillus subtilis
- Test Method Notes: cleaved RNA product abundance (RNA/gDNA barcode ratio) relative to median wild-type variant (ratio to wild type); higher = more accumulation of the downstream cleavage product
- Condition: experiment (reporter, strain, medium): exp 4a: truncated aprE reporter, strain BJT201 with 2% xylose (RNase J1 expressed); cleavage site: cggR-gapA (positions -7 to +36 mutated)
Label Yes when cleaved RNA product abundance is at or above 0.2; anything below gets No.

Worked examples, 3 sequences total:
>  <Seq>
ACAGACGAAGGAGCCGCAAAGAAGTTATTAAGGTATGAATAATCCCTCAATATAAATATTTCTCACTTATTTAAA

>  <Target Desc>
Bacillus subtilis

>  <Cat>
No

$$$$
>  <Seq>
ACAGACGAAGGAGCCGCAAAGAATTTATTAAGGGATGAATAATCCCTCATTATAAATATCTCTCACTTATTTAAA

>  <Target Desc>
Bacillus subtilis

>  <Cat>
Yes

$$$$
>  <Seq>
ACAGACGAAGGAGCCGCAAAGAAGTTATTAAGGGATGAATAATATCTCAATATAAATATCTCTCACTTATTTAAA

>  <Target Desc>
Bacillus subtilis

>  <Cat>
No

$$$$

Query: Tell me whether cleaved RNA product abundance is at least 0.2 here: `ACAGACGAAGGAGCCGCAAAAAAGTTATTAAGGGATGAATAATACCTCAATATAAATATCTCTCACTTATTTAAA`
Response: No

Query: Form field: cleaved RNA product abundance at least 0.2? Entry: `ACAGACGAAGGAGCCGCAACGAAGTTATTAAGGGATGAATAATCCTTCAATATAAATATCTCTCACTTATTTAAA`
Response: Yes

Query: Could you tell me if the measured cleaved RNA product abundance of `ACAGACGAAGGAGCCGCAAAGAAGTTATTAATGGATGAATAATCCCGCAATATAAATATCTCTCACTTATTTAAA` reaches 0.2 or more?
Response: No

Query: Could you tell me if the measured cleaved RNA product abundance of `ACAGACGAAGGAGCCGCAAAGAAGTTATTAAGGGATGACTAATCCCTAAATATAAATATCTCTCACTTATTTAAA` reaches 0.2 or more?
Response: Yes
